Origin of measurements: the RNAGym collection of RNA variant scans (doi:10.1002/anie.201605470)

B1: Osa-1-4 twister ribozyme (parent)
chain: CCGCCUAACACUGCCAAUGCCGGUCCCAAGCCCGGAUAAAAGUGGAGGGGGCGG

# Variants of: B1
# Assay Name: self-cleavage, relative activity (ratio to wild type); higher = more cleavage; co-transcriptional
Quantity Kind: self-cleavage
Reply with the value as a number alone.

Enquiry: Param item = `CCGCCUAACACUGCCAAUGCCGGGCCCAAGCCCGGAUAAAAGUGGAGGGGGCGU` ; retrieve measured self-cleavage.
Return: 0.04

Enquiry: Param item = `CCGCCUAGCACUGCCAAUGCCGGUCCCAAGACCGGAUAAAAGUGGAGGGGGCGG` ; retrieve measured self-cleavage.
Return: 0.03

Enquiry: Param item = `CCGCCUAACACUGCCAAUGACGGUCCCAAGCACGGAUAAAAGUGGAGGGGGCGG` ; retrieve measured self-cleavage.
Return: 0.07

Enquiry: Param item = `CCGCCUAACACUGCCAAUGCCGGUCCCAAGCCCGGAAAGAAGUGGAGGGGGCGG` ; retrieve measured self-cleavage.
Return: 1.01

Enquiry: Param item = `CCGCCUAACACUGCCAAUGCCGGUCCCAAGCCCGGAUUAAAGUGGAGCGGGCGG` ; retrieve measured self-cleavage.
Return: 0.08

Enquiry: Param item = `CCGCCUAACACUGCCAAUGCCGGUCCCAAGCCCGGAUAAAAGUGGAGGGGUCGG` ; retrieve measured self-cleavage.
Return: 0.44

Enquiry: Param item = `CCGCCUAACACUGCCAAUGCCGGACCCAAGCCCGGAUAUAAGUGGAGGGGGCGG` ; retrieve measured self-cleavage.
Return: 0.07

Enquiry: Param item = `CCGCCUAUCACUGCCAAUGCCGGUCCCAAGCCCGGAUAAAAGUGGCGGGGGCGG` ; retrieve measured self-cleavage.
Return: 0.03

Enquiry: Param item = `CCGCCUAACACUGCCAAUGCCGGCCCCAAGCCCGGAUAAAAGUGGAGGGGCCGG` ; retrieve measured self-cleavage.
Return: 0.04

Enquiry: Param item = `CCGCCUAACCCUGCCACUGCCGGUCCCAAGCCCGGAUAAAAGUGGAGGGGGCGG` ; retrieve measured self-cleavage.
Return: 0.03

Enquiry: Param item = `CCGCCUAACACUGCCAAUGCCGGUCCCAAGCCCGGAUAGAAGGGGAGGGGGCGG` ; retrieve measured self-cleavage.
Return: 0.36

Enquiry: Param item = `CCGCCUAACACUGCCAAUGCCGGUGCCAAGCCCGGAUAAAAGUGUAGGGGGCGG` ; retrieve measured self-cleavage.
Return: 0.02

Enquiry: Param item = `CCGCCUAACAAUGCCAAUGCCGGUCCCAAGCCCGGAUAAACGUGGAGGGGGCGG` ; retrieve measured self-cleavage.
Return: 0.71

Enquiry: Param item = `CCGCCUAACACUCCCAAUGCCGGUCCCAAGCCUGGAUAAAAGUGGAGGGGGCGG` ; retrieve measured self-cleavage.
Return: 0.02

Enquiry: Param item = `CCGCCUAACACUGCCAAUGCCGGUCCGAAGCCCGGAUAAAAGUGGAUGGGGCGG` ; retrieve measured self-cleavage.
Return: 0.21

Enquiry: Param item = `CCGCCUAACACUGCCAAUGCCGGUCCCAAGCCGGGAUAAACGUGGAGGGGGCGG` ; retrieve measured self-cleavage.
Return: 0.09

Enquiry: Param item = `CCGCCUAACACUGCCAAUGCCGGUCCUAAGCCCGGAUAAAAGGGGAGGGGGCGG` ; retrieve measured self-cleavage.
Return: 0.08

Enquiry: Param item = `CCGCCUAACACAGCCAAUGCCGGUCCCAAGCCCGGAUAAAAGUGGAGGGUGCGG` ; retrieve measured self-cleavage.
Return: 0.82

Enquiry: Param item = `CCGCCUAACACUGCCAAUGCCGUUCCCAAGCCCGGGUAAAAGUGGAGGGGGCGG` ; retrieve measured self-cleavage.
Return: 0.13

Enquiry: Param item = `CCGCCUAAGACUACCAAUGCCGGUCCCAAGCCCGGAUAAAAGUGGAGGGGGCGG` ; retrieve measured self-cleavage.
Return: 0.06

Enquiry: Param item = `CCGCCUAACACUGCCAAUGCCGGUCCCAAGCCCGGAUAAAAGUGGAGGGUGGGG` ; retrieve measured self-cleavage.
Return: 0.24

Enquiry: Param item = `CCGCCUAACACUGCCAAUGCCGGUCCCUAGCCCGCAUAAAAGUGGAGGGGGCGG` ; retrieve measured self-cleavage.
Return: 0.15

Enquiry: Param item = `CCGCCUAACACUGUCAUUGCCGGUCCCAAGCCCGGAUAAAAGUGGAGGGGGCGG` ; retrieve measured self-cleavage.
Return: 0.79

Enquiry: Param item = `CCGCCUAACACUGCCAAUGCCGGUCCCAAGCACGGAUAAAAGUGGAGGGGGCGC` ; retrieve measured self-cleavage.
Return: 0.06

Enquiry: Param item = `CCGCCUAACACUGCCAAGUCCGGUCCCAAGCCCGGAUAAAAGUGGAGGGGGCGG` ; retrieve measured self-cleavage.
Return: 0.33

Enquiry: Param item = `CCGCCUAACAAUGCCAAUGCCGGUCCCAAGCCCGGAUAAAAGUGGAGGGGGCUG` ; retrieve measured self-cleavage.
Return: 0.09

Enquiry: Param item = `CCGCCUAACACUGCCAAUGCCGGUCCCAAGCCCGGAUCAAAGUGGAGGAGGCGG` ; retrieve measured self-cleavage.
Return: 0.1

Enquiry: Param item = `CCGCCUAACACUGCCAAUGCCAGUCCCAAGCCCGGAUAAAAGUGGAGGGGGCCG` ; retrieve measured self-cleavage.
Return: 0.09

Enquiry: Param item = `CCGCCUAACACUGCGAAUGCCGGUCCCAAGCCCGGAUAAAAGUAGAGGGGGCGG` ; retrieve measured self-cleavage.
Return: 0.12

Enquiry: Param item = `CCGCCUAACACUGCCAAUGCCGGUCCCAAGCCCGGAUGCAAGUGGAGGGGGCGG` ; retrieve measured self-cleavage.
Return: 0.97

Enquiry: Param item = `CCGCCUAACACUGCCAAUCCCGGUCCCAAGCCAGGAUAAAAGUGGAGGGGGCGG` ; retrieve measured self-cleavage.
Return: 0.03

Enquiry: Param item = `CCGCCUAACACUGCCAAUGCCGGUCCCAAGCCCGGAUAAACGUGGAGGGGGCAG` ; retrieve measured self-cleavage.
Return: 0.73

Enquiry: Param item = `CCGCCUCACACUGCCAAUGCCGGUCCCAAGCCCGGAUGAAAGUGGAGGGGGCGG` ; retrieve measured self-cleavage.
Return: 0.06

Enquiry: Param item = `CCGCCUAACAGUGCCAAUGCCGGUCCAAAGCCCGGAUAAAAGUGGAGGGGGCGG` ; retrieve measured self-cleavage.
Return: 0.07

Enquiry: Param item = `CCGCCUAACACUGCCAAUGCCGGUCCCAAGCCCGAAUAAAAGUGGAGGGCGCGG` ; retrieve measured self-cleavage.
Return: 0.78

Enquiry: Param item = `CCGCCUAACACUGCCAAUGGCGGUCCCAAGCCCCGAUAAAAGUGGAGGGGGCGG` ; retrieve measured self-cleavage.
Return: 0.08

Enquiry: Param item = `CCGCCUAACACUGCCAAUGCCGGUCCCAAGCCCGGAUAAAACUGGAGGGGGCGG` ; retrieve measured self-cleavage.
Return: 0.4

Enquiry: Param item = `CCGCCUAACACUGCCAAUGCCGGUCCCAAGCCCGGAUAAAAGUGGGGGGGCCGG` ; retrieve measured self-cleavage.
Return: 0.04

Enquiry: Param item = `CCGCCUAACACUGCCAAUGCCGCUCCCAAGCCCGGAUAAAAGAGGAGGGGGCGG` ; retrieve measured self-cleavage.
Return: 0.05

Enquiry: Param item = `CCGCCUAACACAGCCAAUGCCUGUCCCAAGCCCGGAUAAAAGUGGAGGGGGCGG` ; retrieve measured self-cleavage.
Return: 0.13

Enquiry: Param item = `CCGCCUAACACUUCCAAUGCCGCUCCCAAGCCCGGAUAAAAGUGGAGGGGGCGG` ; retrieve measured self-cleavage.
Return: 0

Enquiry: Param item = `CCGCCUAACACUGCCAAUGCCGGUCCCAAGCCCGCAUAAAAGUGGAAGGGGCGG` ; retrieve measured self-cleavage.
Return: 0.05

Enquiry: Param item = `CCGCCUGACACUGCCAAUGCCGGUCCCAAGCCCGGAUAAAAGAGGAGGGGGCGG` ; retrieve measured self-cleavage.
Return: 0.2

Enquiry: Param item = `CCGCCUAACACUGCCAAUGGCGGUCCCAAGCCCGGAUAAAAGUGGAGGGGGCAG` ; retrieve measured self-cleavage.
Return: 0.06

Enquiry: Param item = `CCGCCUAACACCGCCAAUGCCGGUCCCAAGCCCGGAUAAGAGUGGAGGGGGCGG` ; retrieve measured self-cleavage.
Return: 0.79

Enquiry: Param item = `CCGCCUAUCACUGCCAAUGCCGGUCCCAAGCCCGGACAAAAGUGGAGGGGGCGG` ; retrieve measured self-cleavage.
Return: 0.36
